# study system: Human immunodeficiency virus type 1 reverse transcriptase (Human immunodeficiency virus 1, UniProt Q72547, M184V)
# assay info: Inhibition of DNA-dependent DNA polymerase activity of HIV 1 reverse transcriptase M184V mutant assessed as incorporation of 4-EdTMP by burst assay using DNA/DNA Primer/Template combination
test readout: Kd (µM)

C#C[C@@]1(COP(=O)(O)OP(=O)(O)OP(=O)(O)O)C=C[C@H](n2cc(C)c(=O)[nH]c2=O)O1	168

* * *

# study system: Human immunodeficiency virus type 1 reverse transcriptase (Human immunodeficiency virus 1, UniProt Q72547, M184V)
# assay info: Inhibition of RNA-dependent DNA polymerase activity of HIV 1 reverse transcriptase M184V mutant assessed as incorporation of dTMP by burst assay using RNA/DNA Primer/Template combination
pKd: −log10 of the molar value.
test readout: pKd

Cc1cn([C@H]2C[C@H](O)[C@@H](COP(=O)(O)OP(=O)(O)OP(=O)(O)O)O2)c(=O)[nH]c1=O [DEOXYTHYMIDINE_TRIPHOSPHATE]	3.84

* * *

# study system: Human immunodeficiency virus type 1 reverse transcriptase (Human immunodeficiency virus 1, UniProt Q72547)
# assay info: Inhibition of RNA-dependent DNA polymerase activity of HIV 1 reverse transcriptase assessed as incorporation of d4TMP by burst assay using RNA/DNA Primer/Template combination
pKd: −log10 of the molar value.
test readout: pKd

Cc1cn([C@H]2C=C[C@@H](COP(=O)(O)OP(=O)(O)OP(=O)(O)O)O2)c(=O)[nH]c1=O [STAVUDINE TRIPHOSPHATE]	4.39

* * *

# study system: Human immunodeficiency virus type 1 reverse transcriptase (Human immunodeficiency virus 1, UniProt Q72547)
# assay info: Inhibition of DNA-dependent DNA polymerase activity of HIV 1 reverse transcriptase assessed as incorporation of 4-EdTMP by burst assay using DNA/DNA Primer/Template combination
test readout: Kd

C#C[C@@]1(COP(=O)(O)OP(=O)(O)OP(=O)(O)O)C=C[C@H](n2cc(C)c(=O)[nH]c2=O)O1	15.8 µM

Hello, the source for this data is ChEMBL document CHEMBL1275425, in case you need it.
